Assay: qHTS assay to identify small molecule agonists of the peroxisome proliferator-activated receptor delta (PPARd) signaling pathway - cell viability counter screen (AID 743211); note: nearly all actives have a fitted effect of over 55% in size
Conditions: PPARd-bla HEK293H viability, CellTiter-Glo luminescence, 17 h; series mostly up to 62.6 µM
Records with an inconclusive call do not appear. Calls of active or inactive are those of the source. Calls come from the whole dose curve; as a rule, active = well fitted cell-killing curve with a large enough effect in the repeat runs; inconclusive = weak or mixed curves; inactive = no such curve, though single readings can be large or run the other way.
# valid calls are 1.0 (active), 0.0 (inactive); nothing else

C[C@H]1C[C@H](O)c2ccsc2S1(=O)=O
0.0
CC(=O)OCCN(CCOC(C)=O)c1ccc(N=Nc2ccc([N+](=O)[O-])cc2C#N)cc1
0.0

// outcome(item) with item = CCOc1ccc(Cc2nccc3cc(OCC)c(OCC)cc23)cc1OCC
0.0

// outcome(item) with item = CCCCCCCC/C=C\CCCCCCCCO
0.0

// outcome(item) with item = C=CC(C)(CCC=C(C)C)OC(=O)CC(C)C (stereo unspecified)
0.0

// outcome(item) with item = CCOC(C)=O
0.0

// outcome(item) with item = O=C1c2ccccc2C(=O)N1CCc1noc(-c2ccc(CN3CCCCCC3)s2)n1
0.0

// outcome(item) with item = CCOC(=O)c1ccc(OCCN2C[C@H](O)[C@@H](O)[C@H](O)[C@H]2CO)cc1
0.0

// outcome(item) with item = COC(=O)[C@H]1[C@H]2C[C@@H]3c4[nH]c5cc(OC)ccc5c4CCN3C[C@H]2C[C@@H](OC(=O)/C=C/c2ccc(O)c(OC)c2)[C@@H]1OC
1.0

// outcome(item) with item = CCc1ccccc1
0.0

// outcome(item) with item = O=C(O)C[C@H](NC(=O)OCc1ccccc1)C(=O)O
0.0
